FYI, the data here is from patent US20260116910A1.

- TARGET_ENTITY: human FXR (NR1H4) (Homo sapiens, UniProt Q96RI1)
- Sequence (Q96RI1 1-476 isoform Q96RI1-1): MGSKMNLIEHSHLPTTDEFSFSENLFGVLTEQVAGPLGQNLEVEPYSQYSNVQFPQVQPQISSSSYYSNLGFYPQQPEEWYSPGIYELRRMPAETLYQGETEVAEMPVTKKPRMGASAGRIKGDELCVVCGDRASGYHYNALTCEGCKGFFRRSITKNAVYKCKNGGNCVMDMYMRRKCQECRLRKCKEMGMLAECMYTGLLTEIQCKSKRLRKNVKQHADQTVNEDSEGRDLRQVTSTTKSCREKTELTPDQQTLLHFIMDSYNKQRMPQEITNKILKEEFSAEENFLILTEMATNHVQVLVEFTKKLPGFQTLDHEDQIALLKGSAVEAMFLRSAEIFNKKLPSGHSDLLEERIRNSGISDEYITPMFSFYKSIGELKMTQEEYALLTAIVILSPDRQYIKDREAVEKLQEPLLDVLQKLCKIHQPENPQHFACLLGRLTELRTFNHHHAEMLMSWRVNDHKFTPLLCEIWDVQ
- ASSAY_NAME: Human FXR (NR1H4) agonist assessment, FXRE-NanoLuc reporter in HEK293T cells
- Format: cell-based
- RUN_CONDITIONS: FXR activation, HEK293T FXRE-NanoLuc reporter, 24 hr; read-out: EC50
pEC50: −log10 of the molar value.
Each record here notes measured pEC50.

COMPOUND_STRUCTURE	TARGET_ENTITY	pEC50
[2H]C1([2H])CC[C@@]2(C)[C@@H](C1)[C@@H](CC)[C@@H](O)[C@@H]1[C@@H]2CC[C@]2(C)[C@@H]([C@H](C)CCNC(=S)NS(=O)(=O)c3cccs3)CC[C@@H]12	human FXR (NR1H4) (Homo sapiens, UniProt Q96RI1)	> 6.00
CC[C@H]1[C@@H](O)[C@@H]2[C@H](CC[C@]3(C)[C@@H]([C@H](C)Cc4nnn[nH]4)CC[C@@H]23)[C@@]2(C)CCCC[C@@H]12	human FXR (NR1H4) (Homo sapiens, UniProt Q96RI1)	> 6.00
CC[C@H]1[C@@H](O)[C@@H]2[C@H](CC[C@]3(C)[C@@H]([C@H](C)CCC(=O)O)CC[C@@H]23)[C@@]2(C)CCC(F)(F)C[C@@H]12	human FXR (NR1H4) (Homo sapiens, UniProt Q96RI1)	> 6.00
CC[C@H]1[C@@H](O)[C@@H]2[C@H](CC[C@]3(C)[C@@H]([C@H](C)CNC(=O)NS(=O)(=O)c4ccc5c(c4)CCC(C)(C)O5)CC[C@@H]23)[C@@]2(C)CCCC[C@@H]12	human FXR (NR1H4) (Homo sapiens, UniProt Q96RI1)	5.00 to 6.00
CC[C@H]1[C@@H](O)[C@@H]2[C@H](CC[C@]3(C)[C@@H]([C@H](C)CCNC(=O)NS(=O)(=O)c4ccc(C(C)(C)CO)cc4)CC[C@@H]23)[C@@]2(C)CCCC[C@@H]12	human FXR (NR1H4) (Homo sapiens, UniProt Q96RI1)	> 6.00

====

- TARGET_ENTITY: MRGPRX4 (Homo sapiens)
- Sequence (Q96LA9 whole entry): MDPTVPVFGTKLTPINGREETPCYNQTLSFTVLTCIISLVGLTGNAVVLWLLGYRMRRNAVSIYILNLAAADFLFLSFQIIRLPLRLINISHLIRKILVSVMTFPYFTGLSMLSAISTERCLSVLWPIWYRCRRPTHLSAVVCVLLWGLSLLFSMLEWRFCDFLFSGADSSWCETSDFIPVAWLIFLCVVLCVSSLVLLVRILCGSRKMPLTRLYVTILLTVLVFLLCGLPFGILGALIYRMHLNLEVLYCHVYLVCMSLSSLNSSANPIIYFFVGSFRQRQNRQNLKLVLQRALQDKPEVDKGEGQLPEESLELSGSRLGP
- ASSAY_NAME: MRGPRX4 activation, Fluo-8 Ca2+ FLIPR assay in HEK293T cells stably expressing MRGPRX4
- Type: cell-based
- RUN_CONDITIONS: Conc. (Log[M]) −7.8
RECORDED_METRIC: MRGPRX4 activation, fluorescence change (dF/F0), Average

COMPOUND	TARGET_ENTITY	QUANTITATIVE_READOUT
CC[C@H]1[C@@H](O)[C@@H]2[C@H](CC[C@]3(C)[C@@H]([C@H](C)CCNC(=O)NS(=O)(=O)c4ccc(C(C)(C)CN)cc4)CC[C@@H]23)[C@@]2(C)CCCC[C@@H]12 [5-18]	MRGPRX4 (Homo sapiens)	0.020
CC[C@H]1[C@@H](O)[C@@H]2[C@H](CC[C@]3(C)[C@@H]([C@H](C)CCNC(=O)NS(=O)(=O)c4ccc(C5(CO)CCCC5)cc4)CC[C@@H]23)[C@@]2(C)CCCC[C@@H]12 [5-21]	MRGPRX4 (Homo sapiens)	0.020
CC[C@H]1[C@@H](O)[C@@H]2[C@H](CC[C@]3(C)[C@@H]([C@H](C)CCNC(=O)NS(=O)(=O)c4ccc(C(C)(C)C#N)cc4)CC[C@@H]23)[C@@]2(C)CCCC[C@@H]12 [5-17]	MRGPRX4 (Homo sapiens)	0.020
CC[C@H]1[C@@H](O)[C@@H]2[C@H](CC[C@]3(C)[C@@H]([C@H](C)CCNC(=O)NS(=O)(=O)c4cc(F)cc(F)c4)CC[C@@H]23)[C@@]2(C)CCCC[C@@H]12 [5-24]	MRGPRX4 (Homo sapiens)	0.008
CC[C@H]1[C@@H](O)[C@@H]2[C@H](CC[C@]3(C)[C@@H]([C@H](C)CCNC(=O)NS(=O)(=O)c4ccc(C(C)(CO)CO)cc4)CC[C@@H]23)[C@@]2(C)CCCC[C@@H]12 [5-22]	MRGPRX4 (Homo sapiens)	0.014
CC[C@H]1[C@@H](O)[C@@H]2[C@H](CC[C@]3(C)[C@@H]([C@H](C)CCNC(=O)NS(=O)(=O)c4ccc(C(C)(C)C(N)=O)cc4)CC[C@@H]23)[C@@]2(C)CCCC[C@@H]12 [5-16]	MRGPRX4 (Homo sapiens)	0.013
